Method: Half life in Sprague-Dawley rat at 2 mg/kg, iv measured upto 48 hrs
Type: ADME, organism-based
Assay context: in vivo

>  <Compound>
Cc1cc(-c2nc(Nc3cnn(C4CCN(CC5CCN(c6ccc7c(c6)C(=O)N(C6CCC(=O)NC6=O)C7=O)CC5)CC4)c3)ncc2F)ccc1CNC(=O)c1cn(C(C)(C)C)nn1 (stereo unspecified)

>  <half-life (min)>
422

$$$$

====

Tested on: Protein cereblon/Tyrosine-protein kinase BTK (Homo sapiens, UniProt Q06187+Q96SW2)
Sequence (Q06187 2-659 limits assumed): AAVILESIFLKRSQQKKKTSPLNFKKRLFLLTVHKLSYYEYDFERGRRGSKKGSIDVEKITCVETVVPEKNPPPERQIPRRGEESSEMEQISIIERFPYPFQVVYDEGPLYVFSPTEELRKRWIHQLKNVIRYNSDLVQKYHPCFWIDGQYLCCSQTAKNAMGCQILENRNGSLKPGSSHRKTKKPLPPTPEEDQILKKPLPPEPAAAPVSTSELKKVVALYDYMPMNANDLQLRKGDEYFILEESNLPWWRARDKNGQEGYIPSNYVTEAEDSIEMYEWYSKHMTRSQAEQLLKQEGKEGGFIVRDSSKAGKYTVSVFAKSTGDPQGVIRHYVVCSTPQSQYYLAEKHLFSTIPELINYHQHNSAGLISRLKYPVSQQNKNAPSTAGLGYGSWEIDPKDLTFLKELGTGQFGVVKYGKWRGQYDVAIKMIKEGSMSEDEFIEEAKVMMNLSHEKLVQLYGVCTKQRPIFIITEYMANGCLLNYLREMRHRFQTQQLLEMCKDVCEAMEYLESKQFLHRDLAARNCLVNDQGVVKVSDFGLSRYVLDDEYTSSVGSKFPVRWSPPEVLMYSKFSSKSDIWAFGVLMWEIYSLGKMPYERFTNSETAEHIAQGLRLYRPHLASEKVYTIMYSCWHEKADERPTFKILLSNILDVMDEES
Sequence (Q96SW2 whole entry partner): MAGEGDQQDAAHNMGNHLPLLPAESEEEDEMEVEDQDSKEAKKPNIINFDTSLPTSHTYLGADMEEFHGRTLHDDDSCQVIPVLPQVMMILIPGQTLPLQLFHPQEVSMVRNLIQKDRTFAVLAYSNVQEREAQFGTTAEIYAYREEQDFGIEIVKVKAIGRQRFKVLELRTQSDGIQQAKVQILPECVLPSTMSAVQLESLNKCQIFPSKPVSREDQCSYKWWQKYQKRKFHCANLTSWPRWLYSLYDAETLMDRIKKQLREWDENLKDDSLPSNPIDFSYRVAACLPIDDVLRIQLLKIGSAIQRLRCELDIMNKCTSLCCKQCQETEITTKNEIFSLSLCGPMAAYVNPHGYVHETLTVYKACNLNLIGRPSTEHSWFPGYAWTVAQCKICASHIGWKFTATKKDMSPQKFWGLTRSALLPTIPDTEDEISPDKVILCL
Method: PROTAC activity at BTK/CRBN in human MINO cells assessed as BTK protein degradation at 100 nM measured after 24 hrs by Western blotting analysis relative to control
Type: cell-based

>  <Molecule>
Cc1cc(-c2nc(Nc3cnn(C4CCN(CC5CCN(c6ccc7c(c6)C(=O)N(C6CCC(=O)NC6=O)C7=O)CC5)CC4)c3)ncc2F)ccc1CNC(=O)c1cn(C(C)(C)C)nn1 (configuration not stated)

>  <Activity>
99%

$$$$
>  <Molecule>
C=CC(=O)Nc1cccc(Nc2nc(Nc3ccc(N4CCN(CC5CCN(c6ccc7c(c6)C(=O)N(C6CCC(=O)NC6=O)C7=O)CC5)CC4)cc3)ncc2F)c1 (configuration not stated)

>  <Activity>
28%

$$$$
>  <Molecule>
Cc1cc(-c2nc(Nc3ccn(C4CCN(CC5CCN(c6ccc7c(c6)C(=O)N(C6CCC(=O)NC6=O)C7=O)CC5)CC4)n3)ncc2F)ccc1CNC(=O)c1nc(C(C)(C)C)no1 (configuration not stated)

>  <Activity>
99%

$$$$
>  <Molecule>
CN1CCN([C@@H]2CCCN(c3nc(Nc4ccc(N5CCN(CC6CCN(c7ccc8c(c7)C(=O)N(C7CCC(=O)NC7=O)C8=O)CC6)CC5)cc4)ncc3F)C2)C1=O (some centres not stated)

>  <Activity>
30%

$$$$
>  <Molecule>
O=C1CCC(N2C(=O)c3ccc(N4CC(CN5CCN(c6ccc(Nc7ncc(F)c(N8CCC[C@@H](N9CCOC9=O)C8)n7)cc6)CC5)C4)cc3C2=O)C(=O)N1 (some centres not stated)

>  <Activity>
< 10%

$$$$
>  <Molecule>
O=C1CCC(N2C(=O)c3ccc(N4CC(CN5CCN(c6ccc(Nc7ncc(F)c(-n8cccn8)n7)cc6)CC5)C4)cc3C2=O)C(=O)N1 (configuration not stated)

>  <Activity>
< 10%

$$$$
>  <Molecule>
Nc1ncnc2c1c(-c1ccc(Oc3ccccc3)cc1)nn2C1CCN(C(=O)CN2CCN(CC3CN(c4ccc5c(c4)C(=O)N(C4CCC(=O)NC4=O)C5=O)C3)CC2)CC1 (configuration not stated)

>  <Activity>
99%

$$$$
>  <Molecule>
C=CC(=O)Nc1cccc(Nc2nc(Nc3ccc(N4CCN(C5CN(c6ccc7c(c6)C(=O)N(C6CCC(=O)NC6=O)C7=O)C5)CC4)cc3)ncc2F)c1 (configuration not stated)

>  <Activity>
< 10%

$$$$
>  <Molecule>
Cc1cc(-c2nc(Nc3cnn(C4CCN(CC5CCN(c6ccc7c(c6)C(=O)N(C6CCC(=O)NC6=O)C7=O)CC5)CC4)c3)ncc2F)ccc1CNC(=O)N1CC(OC(C)C)C1 (configuration not stated)

>  <Activity>
95%

$$$$
>  <Molecule>
O=C1CCC(N2C(=O)c3ccc(N4CCC(CN5CCN(c6ccc(Nc7ncc(F)c(N8CCC[C@@H](N9CCOC9=O)C8)n7)cc6)CC5)CC4)cc3C2=O)C(=O)N1 (some centres not stated)

>  <Activity>
39%

$$$$
>  <Molecule>
Cc1cc(-c2nc(Nc3cnn(C4CCN(CC5CCN(c6ncc(-c7ccc(=O)[nH]n7)cc6F)CC5)CC4)c3)ncc2F)ccc1CNC(=O)c1cn(C(C)(C)C)nn1

>  <Activity>
48%

$$$$
>  <Molecule>
O=C1CCC(N2C(=O)c3ccc(N4CC(CN5CCN(c6ccc(Nc7ncc(F)c(N8CCC(CO)CC8)n7)cn6)CC5)C4)cc3C2=O)C(=O)N1 (configuration not stated)

>  <Activity>
< 10%

$$$$
